measured-target: the molecule itself
test-description: cell-based or functional assay
measure: Strain crossover (G'' > G'), 37 C (% strain)
Number in % strain, nothing else.

protein: Q54A mutant (SEQ ID NO: 83) (designed binder) MRGSHHHHHHGSGRGDSGSGSGSGSGSGSGAPQMLRELQETNAALQDVRELLRQAVKEITFLKNTVMESDASGSGSGSGSGSVDGSPAGSPTSTEEGTSESATPESGPGTSTEPSEGSAPGSPAGSPTSTEEGTSTEPSEGSAPGTSTEPSEGSAPGTSESATPESGPGSEPATSGSETPGSEPATSGSETPGSPAGSPTSTEEGTSESATPESGPGTSTEPSEGSAPLESGSGSGSGSGSGAPQMLRELQETNAALQDVRELLRQAVKEITFLKNTVMESDASGSGSGSGSGSGSGRGDSHHHHHHKLN
result-value: 132
//
protein: T40A mutant (SEQ ID NO: 82) (designed binder) MRGSHHHHHHGSGRGDSGSGSGSGSGSGSGAPQMLRELQEANAALQDVRELLRQQVKEITFLKNTVMESDASGSGSGSGSGSVDGSPAGSPTSTEEGTSESATPESGPGTSTEPSEGSAPGSPAGSPTSTEEGTSTEPSEGSAPGTSTEPSEGSAPGTSESATPESGPGSEPATSGSETPGSEPATSGSETPGSPAGSPTSTEEGTSESATPESGPGTSTEPSEGSAPLESGSGSGSGSGSGAPQMLRELQEANAALQDVRELLRQQVKEITFLKNTVMESDASGSGSGSGSGSGSGRGDSHHHHHHKLN
result-value: 143

In the following, a different protein is considered.
Enquiry: Tell me measured Strain crossover (G'' > G'), 37 C for T40A+Q54A mutant (SEQ ID NO: 84) (designed binder) MRGSHHHHHHGSGRGDSGSGSGSGSGSGSGAPQMLRELQEANAALQDVRELLRQAVKEITFLKNTVMESDASGSGSGSGSGSVDGSPAGSPTSTEEGTSESATPESGPGTSTEPSEGSAPGSPAGSPTSTEEGTSTEPSEGSAPGTSTEPSEGSAPGTSESATPESGPGSEPATSGSETPGSEPATSGSETPGSPAGSPTSTEEGTSESATPESGPGTSTEPSEGSAPLESGSGSGSGSGSGAPQMLRELQEANAALQDVRELLRQAVKEITFLKNTVMESDASGSGSGSGSGSGSGRGDSHHHHHHKLN please.
Return: 95

Numbers sourced from patent US20260151539A1.
